These measurements were taken from ChEMBL document CHEMBL1201862.

System: U-251
assay-procedure: NCI tumour cell line growth inhibition, 48 h
The source made the active and inactive calls. Rule as the data show it: active = GI50 up to about 1.1 µM and inactive = higher.
endpoint-name: GI50

compound: OCc1ccccc1C1CSCSC1
GI50: > 100 µM (inactive)

compound: O=C1CC23CC(=O)CC2(C1)c1ccccc1C3=O (stereo unspecified)
GI50: > 100 µM (inactive)

compound: O=P(O)(O)CN1CCN(CP(=O)(O)O)CCN(CP(=O)(O)O)CCN(CP(=O)(O)O)CC1
GI50: 45.6 µM (inactive)

compound: COC(=O)c1onc(-c2c(OC)cc(OC)cc2OC)c1C(=O)OC
GI50: > 100 µM (inactive)

compound: O=C(NCCS(=O)(=O)N1C(=O)C2CCCN2C(=O)[C@@H]1Cc1ccccc1)OCc1ccccc1 (stereo partly specified)
GI50: 55.3 µM (inactive)

Exam item: Specify reported GI50 for the compound shown: CC(C)NCC(O)c1ccc(O)c2ncccc12 (stereo unspecified)
Marked response: 31.5 µM (inactive)

Exam item: Specify reported GI50 for the compound shown: Cc1ccc(NCC2CC/C(=C\c3ccc(Cl)cc3)C2=O)cc1 (stereo unspecified)
Marked response: 17 µM (inactive)

Exam item: Specify reported GI50 for the compound shown: CC(C)(C)C1(O)Cc2ccccc2C(=O)O1 (stereo unspecified)
Marked response: > 100 µM (inactive)

Exam item: Specify reported GI50 for the compound shown: `COc1ccc(NC(=S)C#N)cc1`
Marked response: > 100 µM (inactive)

Exam item: Specify reported GI50 for the compound shown: Oc1cc(O)c2c(c1)OC(c1ccc(O)c(O)c1)C(O)C2c1c(O)cc(O)c2c1OC(c1ccc(O)c(O)c1)C(O)C2 (stereo unspecified)
Marked response: > 100 µM (inactive)

Exam item: Specify reported GI50 for the compound shown: `CCNC1=C(NC(=O)c2ccc(OC)cc2)C(=O)c2ccccc2C1=O`
Marked response: > 100 µM (inactive)

====

Tested on: SF-539
assay-procedure: NCI tumour cell line growth inhibition, 48 h
Active and inactive are the calls of the source. No stated cut-off is given here; in the data, active = GI50 up to about 1.1 µM and inactive = higher.
Recorded GI50, one value per entry.

Below: 4 molecules and their reported GI50.
molecule: COc1ccc2[nH]cc(C=C3C(=O)NC(=S)NC3=O)c2c1
test-value: > 100 µM (inactive)
--
molecule: Cc1cc(C)c2c(c1)C1=NCCN1C2(O)c1ccc(Cl)cc1 (stereo not given)
test-value: 15.3 µM (inactive)
--
molecule: CC(C)(C)c1cc(C(=O)/C=C/c2ccc(C(=O)O)cc2)cc(C(C)(C)C)c1
test-value: 1.36 µM (inactive)
--
molecule: CC(C)(C)C1(O)Cc2ccccc2C(=O)O1 (stereo not given)
test-value: > 100 µM (inactive)

Exam item: Specify reported GI50 for the molecule shown: `C=C1C(=O)O[C@@H]2C[C@@H]3[C@]4(CC[C@]5(C)[C@@H]([C@H](C)CC/C=C(\C)C=O)CC[C@@]35C)C[C@]4(CCC(=O)OC)[C@H]12`
Marked response: 2 µM (inactive)

====

Test system: A498
assay-procedure: NCI tumour cell line growth inhibition, 48 h
Activity calls are given as the source filed them. Cut-off read from the data, not from the text of the source: active = GI50 up to about 1.1 µM and inactive = higher.
endpoint-name: GI50

Below: 3 compounds and their reported GI50.
compound: NC1=CN(CCCO)C2=N/C(=C\c3ccco3)C(=O)N12
endpoint-name: GI50
test-value: > 100 µM (inactive)
//
compound: COc1ccc(C2=C3c4cc(OC)c(OC)cc4CCN3C(=S)SS2)cc1OC
endpoint-name: GI50
test-value: 46.6 µM (inactive)
//
compound: Cn1c2c(c3ccccc31)CCN(CCCCN1CCN(c3cccc(Cl)c3)CC1)C2=O
endpoint-name: GI50
test-value: 13.8 µM (inactive)

Exam item: Specify reported GI50 for the compound shown: `CN(C)Cc1cc(C(=O)/C=C/c2cccc(Cl)c2)cc(CN(C)C)c1O`
Marked response: 3.22 µM (inactive)

Exam item: Specify reported GI50 for the compound shown: OCC1NC(COC2OC(CO)C(O)C(O)C2O)C(O)C(O)C1O (centres undefined)
Marked response: > 100 µM (inactive)

Exam item: Specify reported GI50 for the compound shown: `CC(=O)Nc1ccc(/C=c2\sc3nnc(-c4cccnc4)n3c2=O)cc1`
Marked response: 75.2 µM (inactive)

Exam item: Specify reported GI50 for the compound shown: `CC(C)=CCC[C@]1(C)C=Cc2c(O)c3c(c(CC=C(C)C)c2O1)O[C@]12C(=C[C@@H]4CC1C(C)(C)O[C@@]2(C/C=C(/C)C(=O)O)C4=O)C3=O`
Marked response: 1.73 µM (inactive)

Exam item: Specify reported GI50 for the compound shown: COc1cccc(C2CC(C)=Nc3c(ccc4c3C(=O)c3ccccc3C4=O)N2)c1O (centres undefined)
Marked response: > 100 µM (inactive)

Exam item: Specify reported GI50 for the compound shown: `O=S(=O)(c1ccccc1)N1CN2CN(C1)CN(S(=O)(=O)c1ccccc1)C2`
Marked response: > 100 µM (inactive)

====

Tested on: XF498
assay-procedure: NCI tumour cell line growth inhibition, 48 h
The source made the active and inactive calls. Cut-off read from the data, not from the text of the source: active = GI50 up to about 1.1 µM and inactive = higher.
endpoint-name: GI50

Below: 5 compounds and their reported GI50.
compound: CC1(C)CCc2cc3c(cc2O1)OCC1c2cc4c(cc2OC31)OCO4 (stereo not drawn)
GI50: 52.1 µM (inactive)
--
compound: O=C1CC2C(=O)N(Cc3ccccc3)C1C=C2S(=O)(=O)c1ccccc1 (stereo not drawn)
GI50: > 100 µM (inactive)
--
compound: C=CCCCCn1c2ccccc2c2c(C)c3cnccc3c(C)c21
GI50: 1.95 µM (inactive)
--
compound: CCC1CCc2c(OC)ccc(OCC(=O)O)c2C1=O (stereo not drawn)
GI50: > 100 µM (inactive)
--
compound: CCOC(=O)Cc1csc(Nc2ccc(OCC)cc2)n1
GI50: 38.7 µM (inactive)

Exam item: Specify reported GI50 for the compound shown: `CCOC(=O)Nn1c(C)cc(C(=O)OC)c1C`
Marked response: > 100 µM (inactive)

Exam item: Specify reported GI50 for the compound shown: `N#CCc1nnc(N)o1`
Marked response: > 100 µM (inactive)

Exam item: Specify reported GI50 for the compound shown: Cc1cccc(C)c1NC(=O)CCCC(=O)C1/C(=N/NC(=O)CC#N)CCC/C1=N\NC(=O)CC#N (stereo not drawn)
Marked response: > 100 µM (inactive)

Exam item: Specify reported GI50 for the compound shown: `C/C(=N/NC(=O)c1ccccc1O)c1ccc(/C(C)=N\NC(=O)c2ccccc2O)c2nc3cc(C)c(C)cc3nc12`
Marked response: > 100 µM (inactive)

====

Test system: MCF7
assay-procedure: NCI tumour cell line growth inhibition, 48 h
Active and inactive are the calls of the source. Cut-off read from the data, not from the text of the source: active = GI50 up to about 1.1 µM and inactive = higher. Square brackets hold non-standard residues; d marks the D form. Peptide text beside a SMILES is read from it. pGlu = O=C1CC[CH](C(=O)O)N1
API: response.call in active, inactive

Examples from the recorded data:
compound: CCC(Cc1cnc2nc(N)nc(N)c2n1)c1ccc(C(=O)NC(CCC(=O)O)C(=O)O)cc1 (stereo not given)
class-name: active
//
compound: Nc1nc(Nc2ccccc2)sc1C(=O)c1c[nH]c2ccccc12
class-name: inactive
//
compound: CC(=O)Nc1ccc(C(O)/C(=N/N)c2nc3ccc(Cl)cc3nc2O)cc1 (stereo not given)
class-name: inactive
//
compound: CCOC(=O)c1cc(C2=C(S)N(CC(C)CC)CC2)c(C(=O)CC)[nH]1 (stereo not given)
class-name: inactive

Exam item: Hey, what did the test say about CC(NC(=O)C(Cc1c[nH]cn1)NC(=O)C1CCC(=O)N1)C(N)=O (stereo not drawn) ([pGlu]-His-Ala-NH2; configuration not given here) ?
Marked response: inactive

====

Tested on: 786-0
assay-procedure: NCI tumour cell line growth inhibition, 48 h
Activity calls are given as the source filed them. Rule as the data show it: active = GI50 up to about 1.1 µM and inactive = higher.
endpoint-name: GI50

compound: COP(=O)(OC)/C(=C/c1c[nH]c2ccccc12)C(=O)O
GI50: > 100 µM (inactive)
--
compound: Cc1cc2cc(Cl)ccc2nc1C(=O)c1ccccc1
GI50: > 100 µM (inactive)
--
compound: COc1ccc(C(=O)N2c3ccccc3N(C)n3cccc3C2CC(=O)O)cc1 (configuration not stated)
GI50: > 100 µM (inactive)

Exam item: Specify reported GI50 for the compound shown: `CS(C)(=O)=N/C=C\C(=O)C(Cl)(Cl)Cl`
Marked response: > 100 µM (inactive)

Exam item: Specify reported GI50 for the compound shown: `COc1ccc(NC(S)=Nc2ccccc2)cc1`
Marked response: > 100 µM (inactive)

Exam item: Specify reported GI50 for the compound shown: `CN(C)CCCNC(=O)CCNC(=O)c1cc(NC(=O)c2cc(NC(=O)c3cc(NC(=O)c4nc(NC(=O)CCCNC(=O)c5cc(NC(=O)c6cc(NC(=O)c7cc(NC(=O)c8nccn8C)cn7C)cn6C)cn5C)cn4C)cn3C)cn2C)cn1C`
Marked response: > 100 µM (inactive)

Exam item: Specify reported GI50 for the compound shown: `O=S(=O)(c1ccccc1)N1CN2CN(C1)CN(S(=O)(=O)c1ccccc1)C2`
Marked response: > 100 µM (inactive)

Exam item: Specify reported GI50 for the compound shown: `O=C(CCl)N1CCN(c2ccccc2)CC1`
Marked response: 15.9 µM (inactive)

Exam item: Specify reported GI50 for the compound shown: NC(C(=O)O)C(O)c1c[nH]cn1 (configuration not stated)
Marked response: > 100 µM (inactive)

Exam item: Specify reported GI50 for the compound shown: CC(=O)N1OC(C)CC1Nc1ccc(Br)cc1 (configuration not stated)
Marked response: > 100 µM (inactive)
